B1: Kelch repeat and BTB domain-containing protein 7 (Homo sapiens), Q8WVZ9 (parent)
chain: MQSREDVPRSRRLASPRGGRRPKRISKPSVSAFFTGPEELKDTAHSAALLAQLKSFYDARLLCDVTIEVVTPGSGPGTGRLFSCNRNVLAAACPYFKSMFTGGMYESQQASVTMHDVDAESFEVLVDYCYTGRVSLSEANVQRLYAASDMLQLEYVREACASFLARRLDLTNCTAILKFADAFDHHKLRSQAQSYIAHNFKQLSRMGSIREETLADLTLAQLLAVLRLDSLDIESERTVCHVAVQWLEAAAKERGPSAAEVFKCVRWMHFTEEDQDYLEGLLTKPIVKKYCLDVIEGALQMRYGDLLYKSLVPVPNSSSSSSSSNSLVSAAENPPQRLGMCAKEMVIFFGHPRDPFLCYDPYSGDIYTMPSPLTSFAHTKTVTSSAVCVSPDHDIYLAAQPRKDLWVYKPAQNSWQQLADRLLCREGMDVAYLNGYIYILGGRDPITGVKLKEVECYSVQRNQWALVAPVPHSFYSFELIVVQNYLYAVNSKRMLCYDPSHNMWLNCASLKRSDFQEACVFNDEIYCICDIPVMKVYNPARGEWRRISNIPLDSETHNYQIVNHDQKLLLITSTTPQWKKNRVTVYEYDTREDQWINIGTMLGLLQFDSGFICLCARVYPSCLEPGQSFITEEDDARSESSTEWDLDGFSELDSESGSSSSFSDDEVWVQVAPQRNAQDQQGSL

Variants of: B1
Details: with mlp3b_human MAP1LC3B
assay endpoint: effect of a mutation on the interaction

> print(dat)
   variant.label                           assay.endpoint  endpoint.value
1          Y559A  effect of a mutation on the interaction  with no effect
2          F122A  effect of a mutation on the interaction  with no effect
3          F649A  effect of a mutation on the interaction  with no effect
